In what follows, each item is paired with its IC50 for Cyclin-dependent kinase 5/CDK5 activator 1 (Homo sapiens, UniProt Q00535).
measure-name: IC50 (µM)

1 = N#CCSc1nnc(Cc2c(NC(=O)c3ccccc3)sc3c2CCCC3)n1NC(=O)c1ccccc1
2 = NNC(=O)CSc1nnc(Cc2c(NCCC(=O)O)sc3c2CCCC3)n1NC(=O)c1ccc(Cl)cc1
Q) Of 1 and 2 , which carries the smaller reported IC50 figure? Field: selected label. Fill in the label of the entry you choose.
A) 2
(2: 0.201 µM, 1: 0.486 µM)

1 = O=C(CSc1nnc(Cc2c(NC(=O)c3ccccc3)sc3c2CCCC3)n1NC(=O)c1ccc(Cl)cc1)NNC(=O)c1ccccc1
2 = Nn1c(S)nnc1CSc1nnc(Cc2c(NC(=O)CCl)sc3c2CCCC3)n1NC(=O)c1ccccc1
Q) Of 1 and 2 , which carries the smaller reported IC50 figure? Field: selected label. Fill in the label of the entry you choose.
A) 1
(1: 0.483 µM, 2: 6.18 µM)

P = CC(=O)Nc1sc2c(c1Cc1nnc(SCC#N)n1NC(C)=O)CCCC2
Q = N#CCSc1nnc(Cc2c(NC(=O)CCl)sc3c2CCCC3)n1NC(=O)c1ccccc1
Q) Of P and Q , which carries the smaller reported IC50 figure? Field: selected label. Fill in the label of the entry you choose.
A) P
(P: 0.458 µM, Q: 0.657 µM)

a = O=C(Nc1sc2c(c1Cc1nnc(SCSc3nnc(Cc4c(NC(=O)c5ccccc5)sc5c4CCCC5)n3NC(=O)c3ccc(Cl)cc3)n1NC(=O)c1ccc(Cl)cc1)CCCC2)c1ccccc1
b = CC(=O)NNC(=O)CSc1nnc(Cc2c(NCCC(=O)O)sc3c2CCCC3)n1NC(C)=O
Q) I'd appreciate it if you could identify which of a and b has the greater IC50. Field: selected label. Fill in the label of the entry you choose.
A) a

====

In what follows, each item is paired with its pIC50 for Cyclin-dependent kinase 5/CDK5 activator 1 (Homo sapiens).
pIC50: −log10 of the molar value.
measure-name: pIC50

Consider the worked cases shown below.
{"columns": ["query-smiles", "pIC50"],
 "data": [
  ["CC(=O)Nc1sc2c(c1Cc1nnc(SCC(=O)N/N=C/c3ccccc3)n1NC(=O)c1ccccc1)CCCC2", 6.41],
  ["Nn1c(CSc2nnc(Cc3c(NCCC(=O)O)sc4c3CCCC4)n2NC(=O)c2ccccc2)n[nH]c1=S", 5.30],
  ["O=C(O)CCNc1sc2c(c1Cc1n[nH]c(=S)n1NC(=O)c1ccccc1)CCCC2", 6.17],
  ["O=C(CSc1nnc(Cc2c(NC(=O)CCl)sc3c2CCCC3)n1NC(=O)c1ccccc1)NNC(=O)c1ccccc1", 6.33],
  ["CC(=O)NNC(=O)CSc1nnc(Cc2c(NCCC(=O)O)sc3c2CCCC3)n1NC(=O)c1ccccc1", 6.33]
]}

1 = CC(=O)NNC(=O)CSc1nnc(Cc2c(NC(C)=O)sc3c2CCCC3)n1NC(=O)c1ccc(Cl)cc1
2 = Nn1c(CSc2nnc(Cc3c(NC(=O)c4ccccc4)sc4c3CCCC4)n2NC(=O)c2ccccc2)n[nH]c1=S
3 = O=C(Cc1c(NC(=O)c2ccccc2)sc2c1CCCC2)NNC(=S)[S-].[K+]
Q) Order the items by recorded pIC50; the first position goes to the largest value. Use the labels to give the ranking in the order requested.
A) 3, 1, 2

====

In what follows, each item is paired with its IC50 for Cyclin-dependent kinase 5/CDK5 activator 1 (Homo sapiens, UniProt Q00535).
measure-name: IC50 (nM)

{"columns": ["query-smiles", "measured-target", "IC50 / nM"],
 "data": [
  ["CC(=O)Nc1sc2c(c1Cc1nnc(SCC#N)n1NC(=O)c1ccc(Cl)cc1)CCCC2", "Cyclin-dependent kinase 5/CDK5 activator 1 (Homo sapiens, UniProt Q00535)", 415],
  ["CC(=O)Nn1c(S)nnc1Cc1c(NC(=O)c2ccccc2)sc2c1CCCC2", "Cyclin-dependent kinase 5/CDK5 activator 1 (Homo sapiens, UniProt Q00535)", 618],
  ["CC(=O)NNC(=O)CSc1nnc(Cc2c(NCCC(=O)O)sc3c2CCCC3)n1NC(=O)c1ccc(Cl)cc1", "Cyclin-dependent kinase 5/CDK5 activator 1 (Homo sapiens, UniProt Q00535)", 352],
  ["N#CCSc1nnc(Cc2c(NC(=O)CCl)sc3c2CCCC3)n1NC(=O)c1ccc(Cl)cc1", "Cyclin-dependent kinase 5/CDK5 activator 1 (Homo sapiens, UniProt Q00535)", 58],
  ["O=C(O)CCNc1sc2c(c1Cc1nnc(SCC(=O)NNC(=O)c3ccccc3)n1NC(=O)c1ccccc1)CCCC2", "Cyclin-dependent kinase 5/CDK5 activator 1 (Homo sapiens, UniProt Q00535)", 434]
]}

1 = O=C(O)CCNc1sc2c(c1Cc1nnc(SCC(=O)N/N=C/c3ccccc3)n1NC(=O)c1ccc(Cl)cc1)CCCC2
2 = CC(=O)Nc1sc2c(c1Cc1nnc(SCC(=O)NNC(=O)CCl)n1NC(C)=O)CCCC2
Q) Of 1 and 2 , which carries the smaller reported IC50 figure? Field: selected label. Fill in the label of the entry you choose.
A) 1

I = COC(=O)CSc1nnc(Cc2c(NCCC(=O)O)sc3c2CCCC3)n1NC(=O)c1ccc(Cl)cc1
II = CC(=O)Nn1c(Cc2c(NC(=O)CCl)sc3c2CCCC3)nnc1SCc1n[nH]c(=S)n1N
Q) I'd appreciate it if you could identify which of I and II has the greater IC50. Field: selected label. Fill in the label of the entry you choose.
A) II

I = CC(=O)NNC(=O)CSc1nnc(Cc2c(NC(=O)CCl)sc3c2CCCC3)n1NC(=O)c1ccc(Cl)cc1
II = Nn1c(S)nnc1CSc1nnc(Cc2c(NC(=O)CCl)sc3c2CCCC3)n1NC(=O)c1ccc(Cl)cc1
Q) Of I and II , which carries the smaller reported IC50 figure? Field: selected label. Fill in the label of the entry you choose.
A) I

====

Target: Cyclin-dependent kinase 5/CDK5 activator 1 (Homo sapiens, UniProt Q00535)
Sequence (Q00535 whole entry): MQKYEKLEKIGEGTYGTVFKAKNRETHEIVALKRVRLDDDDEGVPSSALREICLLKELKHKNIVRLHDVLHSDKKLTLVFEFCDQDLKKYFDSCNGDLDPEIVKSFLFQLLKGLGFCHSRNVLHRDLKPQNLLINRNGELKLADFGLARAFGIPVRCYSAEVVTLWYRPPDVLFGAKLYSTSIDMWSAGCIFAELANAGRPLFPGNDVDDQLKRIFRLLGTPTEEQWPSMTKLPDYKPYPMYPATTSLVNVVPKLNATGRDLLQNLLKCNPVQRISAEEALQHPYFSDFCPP
Sequence (Q15078 whole entry, further chain): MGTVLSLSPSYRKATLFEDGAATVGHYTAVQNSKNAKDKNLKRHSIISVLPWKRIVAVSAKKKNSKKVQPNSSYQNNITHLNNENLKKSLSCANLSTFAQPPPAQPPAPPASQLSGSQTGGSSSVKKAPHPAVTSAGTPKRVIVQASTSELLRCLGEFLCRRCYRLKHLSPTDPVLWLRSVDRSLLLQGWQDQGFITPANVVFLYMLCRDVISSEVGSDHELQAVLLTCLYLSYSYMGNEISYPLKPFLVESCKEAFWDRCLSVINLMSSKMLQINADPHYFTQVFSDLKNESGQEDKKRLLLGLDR
pIC50: −log10 of the molar value.
measure-name: pIC50

{"columns": ["query-smiles", "pIC50"],
 "data": [
  ["CC(=O)Nn1c(Cc2c(NC(=O)CCl)sc3c2CCCC3)nnc1SCSc1nnc(Cc2c(NC(=O)CCl)sc3c2CCCC3)n1NC(C)=O", 6.07],
  ["CC(=O)NNC(=O)CSc1nnc(Cc2c(NC(C)=O)sc3c2CCCC3)n1NC(=O)c1ccccc1", 6.26]
]}

I = O=C(CCl)Nc1sc2c(c1Cc1n[nH]c(=S)n1NC(=O)c1ccc(Cl)cc1)CCCC2
II = N#CCSc1nnc(Cc2c(NC(=O)c3ccccc3)sc3c2CCCC3)n1NC(=O)c1ccc(Cl)cc1
III = O=C(Nc1sc2c(c1Cc1nnc(S)n1NC(=O)c1ccc(Cl)cc1)CCCC2)c1ccccc1
Q) Order the items by recorded pIC50; the first position goes to the largest value. Use the labels to give the ranking in the order requested.
A) III, I, II
(III: 6.74, I: 6.46, II: 6.26)

====

Target: Cyclin-dependent kinase 5/CDK5 activator 1 (Homo sapiens, UniProt Q00535)
measure-name: IC50 (nM)

{"columns": ["query-smiles", "measure-name", "measured-number"],
 "data": [
  ["Nn1c(S)nnc1Cc1c(NCCC(=O)O)sc2c1CCCC2", "IC50", 268],
  ["O=C(CCl)NNC(=O)CSc1nnc(Cc2c(NC(=O)c3ccccc3)sc3c2CCCC3)n1NC(=O)c1ccccc1", "IC50", 547],
  ["O=C(CCl)NNC(=O)CSc1nnc(Cc2c(NC(=O)CCl)sc3c2CCCC3)n1NC(=O)c1ccc(Cl)cc1", "IC50", 229],
  ["CC(=O)Nn1c(Cc2c(NC(=O)CCl)sc3c2CCCC3)nnc1SCC(=O)NNC(=O)CCl", "IC50", 452],
  ["O=C(CSc1nnc(Cc2c(NC(=O)CCl)sc3c2CCCC3)n1NC(=O)c1ccccc1)N/N=C/c1ccccc1", "IC50", 32],
  ["COC(=O)CSc1nnc(Cc2c(NC(C)=O)sc3c2CCCC3)n1NC(C)=O", "IC50", 389]
]}

P = CC(=O)Nc1sc2c(c1Cc1nnc(SCC(=O)NN)n1NC(C)=O)CCCC2
Q = CC(=O)Nn1c(Cc2c(NC(=O)CCl)sc3c2CCCC3)nnc1SCC(=O)NNC(=O)c1ccccc1
R = Nn1c(S)nnc1Cc1c(NC(=O)CCl)sc2c1CCCC2
S = COC(=O)CSc1nnc(Cc2c(NCCC(=O)O)sc3c2CCCC3)n1NC(=O)c1ccccc1
T = Nn1c(S)nnc1CSc1nnc(Cc2c(NC(=O)c3ccccc3)sc3c2CCCC3)n1NC(=O)c1ccc(Cl)cc1
Q) Order the items by recorded IC50; the first position goes to the largest value. Use the labels to give the ranking in the order requested.
A) T, S, Q, P, R
(T: 3280 nM, S: 641 nM, Q: 363 nM, P: 249 nM, R: 43 nM)

Data origin, for the record: ChEMBL document CHEMBL1795325
